System Name: human PD-L1 / Human PD-1 (Homo sapiens (Human))
Sequence (Q9NZQ7 19-239): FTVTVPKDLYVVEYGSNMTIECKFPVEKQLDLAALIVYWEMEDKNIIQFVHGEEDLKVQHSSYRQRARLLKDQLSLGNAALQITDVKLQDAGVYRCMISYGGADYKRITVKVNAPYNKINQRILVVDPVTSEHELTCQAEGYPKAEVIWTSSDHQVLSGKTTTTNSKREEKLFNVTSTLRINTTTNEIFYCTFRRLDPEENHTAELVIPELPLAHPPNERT
Measurement Description: Enzyme-Linked Immunosorbent Assay (ELISA), PD-1/PD-L1 binding
Experimental Conditions: plate-coated human PD-L1, biotinylated human PD-1
pIC50: −log10 of the molar value.
Reported pIC50 values for the following molecules.
Test Readout: pIC50

| Molecule | Assay Value |
| --- | --- |
| CN1CC(COc2cccc(-c3cccc4c3CC[C@@H]4Oc3cc(OCc4cncc(C#N)c4)c(CN[C@H]4CCC(=O)NC4)cc3Cl)c2Cl)CC1=O (some centres unmarked) | 6.30 to 8.30 |
| C[C@@](CO)(NCc1cc(Cl)c(O[C@H]2CCc3c(-c4cccc(OCCCN5CC(O)C5)c4Cl)cccc32)cc1OCc1cncc(C#N)c1)C(=O)O | > 8.30 |
| CCOc1cc(O[C@H]2CCc3c(-c4cccc(OCCCN(C)C(C)(C)C)c4C)cccc32)c(Cl)cc1CNC[C@@H]1CCC(=O)N1 | > 8.30 |
| Cc1c(OCCCN2CCC(O)CC2)cccc1-c1cccc2c1CC[C@@H]2Oc1cc(OCc2cncc(C#N)c2)c(CN2CCC(C)(O)CC2)cc1Cl | > 8.30 |
| Cc1c(OCCCN2CCC(C)(C)CC2)cccc1-c1cccc2c1CC[C@@H]2Oc1cc(OCc2cc(C#N)cc(C#N)c2)c(CN[C@H]2CCC(=O)NC2)cc1Cl | 6.30 to 8.30 |
| Cc1c(OCCCN2CC3(CC(O)C3)C2)cccc1-c1cccc2c1CC[C@@H]2Oc1cc(OCc2cc(C#N)cc(C#N)c2)c(CNC[C@H]2CCC(=O)N2)cc1Cl | > 8.30 |
| CC(CO)(CO)NCc1cc(Cl)c(O[C@H]2CCc3c(-c4cccc(OCCCN5CCNC(=O)C5)c4Cl)cccc32)cc1OCc1cncc(C#N)c1 | > 8.30 |
| CCOc1cc(O[C@H]2CCc3c(-c4cccc(OCCCN5CCC5(C)C)c4C)cccc32)c(Cl)cc1CN(C)CCCCC(=O)OC | 6.30 to 8.30 |
| CCOc1cc(O[C@H]2CCc3c(-c4cccc(OCCCN5CCC5(C)C)c4C)cccc32)c(Cl)cc1CNCC1CCC(=O)N1C (some centres unmarked) | 6.30 to 8.30 |
| CCOc1cc(O[C@H]2CCc3c(-c4cccc(OCCCN5[C@H](C)CC[C@H]5C)c4C)cccc32)c(Cl)cc1CNC[C@@H]1CCC(=O)N1 | > 8.30 |
| Cc1c(OCCCN2CC(C)(C)C2)cccc1-c1cccc2c1CC[C@@H]2Oc1cc(OCc2cc(C#N)cc(C#N)c2)c(CN[C@H]2CCC(=O)NC2)cc1Cl | > 8.30 |
| N#Cc1cc(C#N)cc(COc2cc(O[C@@H]3c4cccc(-c5cccc(OCCCN6CC(O)C6)c5Cl)c4C[C@@H]3F)c(Cl)cc2CNC[C@@H]2CCC(=O)N2)c1 | 6.30 to 8.30 |
| N#Cc1cncc(COc2cc(O[C@H]3CCc4c(-c5cccc(OCCCN6CC(O)C6)c5Cl)cccc43)c(Cl)cc2CN2CCC(O)CC2)c1 | > 8.30 |
| CCOc1cc(O[C@H]2CCc3c(-c4cccc(OCCCN5CC[C@@H](O)C5)c4C)cccc32)c(Cl)cc1CNC(C)(CO)C(=O)O (some centres unmarked) | > 8.30 |

----------
Reported IC50 values for the following compounds.
System Name: human PD-L1 / Human PD-1 (Homo sapiens (Human))
Measurement Description: Enzyme-Linked Immunosorbent Assay (ELISA), PD-1/PD-L1 binding
Experimental Conditions: plate-coated human PD-L1, biotinylated human PD-1
Test Readout: IC50

| Compound | Test Readout | Assay Value |
| --- | --- | --- |
| CCOc1cc(O[C@H]2CCc3c(-c4cccc(OCCCN5CC(O)C5)c4Cl)cccc32)c(Cl)cc1CNCC1CCC(=O)N1 (stereo partly drawn) | IC50 | 5 to 500 nM |
| N#Cc1cncc(COc2cc(O[C@H]3CCc4c(-c5cccc(OCCCN6CC7(C6)CC(F)(F)C7)c5Cl)cccc43)c(Cl)cc2CN[C@H]2CC[C@@H]2O)c1 | IC50 | 5 to 500 nM |
| N#Cc1cncc(COc2cc(O[C@H]3CCc4c(-c5cccc(OCCC(N)=O)c5Cl)cccc43)c(Cl)cc2CNC[C@H]2CCC(=O)N2)c1 | IC50 | 5 to 500 nM |

----------
System Name: human PD-L1 / Human PD-1 (Homo sapiens (Human))
Measurement Description: Enzyme-Linked Immunosorbent Assay (ELISA), PD-1/PD-L1 binding
Experimental Conditions: plate-coated human PD-L1, biotinylated human PD-1
pIC50: −log10 of the molar value.
Reported pIC50 values for the following molecules.
Test Readout: pIC50

| Smiles String | Assay Value |
| --- | --- |
| Cc1c(OCCCN2CC[C@@H](F)C[C@@H]2C)cccc1-c1cccc2c1CC[C@@H]2Oc1cc(OCc2cc(C#N)cc(C#N)c2)c(CN[C@H]2CCC(=O)NC2)cc1Cl | 6.30 to 8.30 |
| Cc1c(OCCCN2CCC(C)(F)CC2)cccc1-c1cccc2c1CC[C@@H]2Oc1cc(OCc2cncc(C#N)c2)c(CN[C@H]2CCC(=O)NC2)cc1Cl | 6.30 to 8.30 |
| C[C@@H](O)[C@H](NCc1cc(Cl)c(O[C@H]2CCc3c(-c4cccc(OCCCN5CC(O)C5)c4Cl)cccc32)cc1OCc1cncc(C#N)c1)C(=O)O | > 8.30 |
| N#Cc1cncc(COc2cc(O[C@H]3CCc4c(-c5cccc(OCCCN6CCC(O)CC6)c5Cl)cccc43)c(Cl)cc2CN[C@@H]2CCCC[C@@H]2O)c1 | > 8.30 |
| N#Cc1cncc(COc2cc(O[C@H]3CCc4c(-c5cccc(OCCCN6CC7(C6)CC(F)(F)C7)c5Cl)cccc43)c(Cl)cc2CN[C@H]2CCC[C@H]2O)c1 | > 8.30 |
| N#Cc1cncc(COc2cc(O[C@H]3CCc4c(-c5cccc(OCCCN6CCC6)c5Cl)cccc43)c(Cl)cc2CN[C@@H]2CCCC[C@@H]2O)c1 | > 8.30 |
